system: 5-HT2A (Homo sapiens, UniProt P28223)
Sequence (P28223 whole entry, species assumed): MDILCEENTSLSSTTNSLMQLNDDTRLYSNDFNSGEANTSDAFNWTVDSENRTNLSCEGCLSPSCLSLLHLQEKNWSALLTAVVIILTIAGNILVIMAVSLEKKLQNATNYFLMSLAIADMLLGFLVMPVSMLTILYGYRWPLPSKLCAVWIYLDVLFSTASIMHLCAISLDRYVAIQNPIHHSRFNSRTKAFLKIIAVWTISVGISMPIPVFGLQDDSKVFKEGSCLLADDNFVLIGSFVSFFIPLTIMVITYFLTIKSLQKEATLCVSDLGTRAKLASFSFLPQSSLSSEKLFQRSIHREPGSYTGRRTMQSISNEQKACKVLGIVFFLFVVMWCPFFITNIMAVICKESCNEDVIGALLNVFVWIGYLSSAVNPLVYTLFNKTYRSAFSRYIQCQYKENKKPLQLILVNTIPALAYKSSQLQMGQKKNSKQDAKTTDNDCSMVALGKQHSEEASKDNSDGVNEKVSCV
run_description: Off target binding, 5-HT2A receptor
observation_type: pKi
Numbers only, as −log10 of the molar value.

Entry COc1c(Cl)cccc1N1CCN(CCCCNC(=O)c2cc3ccccc3[nH]2)CC1 has what pKi?
7.71

---

run_description: Plasma free fraction by ultrafiltration
Assay type: in vitro ADME
condition: human plasma, n = 3; read-out: Human plasma free fraction (fp)
observation_type: fraction unbound at 10 min
Numbers only.

Entry [11CH3]Oc1c(Cl)cccc1N1CCN(CCCCNC(=O)c2cc3ccccc3[nH]2)CC1 [[^11C]1] has what fraction unbound at 10 min?
0.0015

---

run_description: Lipophilicity (logD7.4), 1-octanol/sodium phosphate buffer
Type: physicochemical
condition: room temperature, 1-octanol/sodium phosphate buffer pH 7.4, n = 6
observation_type: logD
One number for each entry.

Entry [11CH3]Oc1c(Cl)cccc1N1CCN(CCCCNC(=O)c2cc3ccccc3[nH]2)CC1 [[^11C]1] has what logD?
3.33
